STUDY_SYSTEM: SUMO-activating enzyme (Homo sapiens, UniProt Q9UBT2)
Sequence (Q9UBE0 whole entry): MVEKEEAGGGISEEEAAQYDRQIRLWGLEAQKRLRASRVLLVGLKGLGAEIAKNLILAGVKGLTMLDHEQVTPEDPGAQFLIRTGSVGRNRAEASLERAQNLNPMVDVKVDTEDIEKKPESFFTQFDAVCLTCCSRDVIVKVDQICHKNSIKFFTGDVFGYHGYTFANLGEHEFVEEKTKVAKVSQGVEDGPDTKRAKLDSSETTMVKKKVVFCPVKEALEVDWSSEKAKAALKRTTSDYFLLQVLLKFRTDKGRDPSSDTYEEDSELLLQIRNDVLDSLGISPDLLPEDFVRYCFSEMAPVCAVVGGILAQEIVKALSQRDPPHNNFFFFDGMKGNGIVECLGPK
Sequence (Q9UBT2 whole entry): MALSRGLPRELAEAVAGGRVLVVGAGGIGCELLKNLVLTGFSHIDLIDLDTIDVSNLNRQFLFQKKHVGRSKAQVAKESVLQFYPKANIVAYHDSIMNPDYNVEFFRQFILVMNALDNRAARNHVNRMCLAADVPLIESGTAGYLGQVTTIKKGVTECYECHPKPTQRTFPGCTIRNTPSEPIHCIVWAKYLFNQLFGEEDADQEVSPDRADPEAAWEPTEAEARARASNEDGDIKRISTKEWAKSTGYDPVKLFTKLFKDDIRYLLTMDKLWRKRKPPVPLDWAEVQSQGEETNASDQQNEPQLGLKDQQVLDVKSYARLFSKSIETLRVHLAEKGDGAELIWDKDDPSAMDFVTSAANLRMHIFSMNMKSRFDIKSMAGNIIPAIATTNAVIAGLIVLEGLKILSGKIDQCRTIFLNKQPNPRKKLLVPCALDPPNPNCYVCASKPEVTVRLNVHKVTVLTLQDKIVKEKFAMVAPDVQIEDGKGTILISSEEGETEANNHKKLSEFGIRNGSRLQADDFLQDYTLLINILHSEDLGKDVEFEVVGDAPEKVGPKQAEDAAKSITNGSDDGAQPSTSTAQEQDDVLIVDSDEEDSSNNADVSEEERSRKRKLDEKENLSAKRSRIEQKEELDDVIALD
MEASUREMENT_PROTOCOL: SUMOylation inhibitor hit validation, confirmation, SUMOylation inhibitor project, biochemical, AlphaScreen (AID 2018)
Format: functional
Calls of active or inactive are those of the source.
Hi! Could you answer with just one of these? true (active), false (inactive)

| COMPOUND | ASSIGNED_CATEGORY |
| --- | --- |
| COc1ccc(-c2nnc(SCC(=O)Nc3cc(C)on3)[nH]2)cc1 | false |

Which outcome was assigned to Cc1[nH]n(-c2ncc(-c3ccccc3)s2)c(=O)c1C(c1ccc(Cl)cc1)C(C#N)C#N (centres undefined) in this test? true

Same again, this time with Cc1ccc(S(=O)(=O)n2ccc(OC(=O)c3cccs3)n2)cc1 true

Same again, this time with COc1cc(/C=C2\C(=O)N(c3ccccc3)N=C2C)ccc1Oc1ccc([N+](=O)[O-])cc1[N+](=O)[O-] true

* * *

Sequence of the target: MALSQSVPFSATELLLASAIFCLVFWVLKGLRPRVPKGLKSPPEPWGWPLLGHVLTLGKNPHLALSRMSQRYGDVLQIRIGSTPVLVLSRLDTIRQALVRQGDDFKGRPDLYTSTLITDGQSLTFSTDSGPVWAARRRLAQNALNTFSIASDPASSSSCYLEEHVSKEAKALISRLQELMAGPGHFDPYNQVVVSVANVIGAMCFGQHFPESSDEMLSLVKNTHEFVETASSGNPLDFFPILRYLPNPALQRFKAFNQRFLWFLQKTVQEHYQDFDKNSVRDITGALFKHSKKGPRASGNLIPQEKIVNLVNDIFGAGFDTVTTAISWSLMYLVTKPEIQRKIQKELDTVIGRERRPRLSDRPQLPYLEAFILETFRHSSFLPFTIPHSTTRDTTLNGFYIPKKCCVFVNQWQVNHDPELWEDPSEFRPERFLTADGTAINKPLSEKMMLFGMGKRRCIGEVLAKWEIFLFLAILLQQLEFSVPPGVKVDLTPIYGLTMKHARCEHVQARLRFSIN
ENDPOINT_LABEL: AC50

# example entries with known answers
| COMPOUND | AC50 |
| --- | --- |
| COc1ccc(/C=C/C(=O)Nc2ccccc2C(=O)N2CCCC2)cc1 | 28.2 µM (inconclusive) |
| COc1ccccc1-c1nccc(NC2CCNCC2)n1 | 15.8 µM (inconclusive) |
| CC(=O)NC(Cc1ccc(F)cc1)C(=O)O (stereo unspecified) | 0.01 µM (inconclusive) |
| Cc1ccc(/C=N/NC(=O)CSc2nc3nc(C)cc(C)n3n2)cc1 | 4.47 µM (inconclusive) |
| Cn1c(=O)c(-c2ccc(Cl)cc2)nc2cnc(Nc3ccccc3)nc21 | 31.6 µM (inconclusive) |
| CCN(CC(=O)Nc1ccc2c(c1)OCCO2)C(=O)c1cccc(S(=O)(=O)N2CCOCC2)c1 | 12.6 µM (inconclusive) |
| Cc1[nH]n(-c2ccccc2)c(=O)c1CCOC(=O)c1ccc(C(F)(F)F)cc1 | 15.8 µM (inconclusive) |
| CN1CCN(C(=O)c2ccc(-n3cccc3)cc2)CC1 | 25.1 µM (inconclusive) |

// returns reported AC50 for input COc1cccc(NC(=O)CSc2nc3ccccc3cc2Cc2ccccc2)c1 4.47 µM (inconclusive)

Same again, this time with COCCSc1nnc(NC(=O)C(C)(C)C)s1 25.1 µM (inconclusive)

Same again, this time with CCOC(=O)N1CCN(C(=O)c2cccn3c(=O)c4cc(Cl)ccc4nc23)CC1 25.1 µM (inconclusive)
